# measuredOn: F508del/F508del CFTR (Homo sapiens, UniProt P13569, DEL508-508)
# Construct: cells isolated from CF patients with the homozygous mutation; endogenous in cells; host or cells: primary human bronchial epithelial (hBE) cells from CF patients homozygous for F508del
# Sequence (P13569 with tags, fused parts or gaps DEL508-508): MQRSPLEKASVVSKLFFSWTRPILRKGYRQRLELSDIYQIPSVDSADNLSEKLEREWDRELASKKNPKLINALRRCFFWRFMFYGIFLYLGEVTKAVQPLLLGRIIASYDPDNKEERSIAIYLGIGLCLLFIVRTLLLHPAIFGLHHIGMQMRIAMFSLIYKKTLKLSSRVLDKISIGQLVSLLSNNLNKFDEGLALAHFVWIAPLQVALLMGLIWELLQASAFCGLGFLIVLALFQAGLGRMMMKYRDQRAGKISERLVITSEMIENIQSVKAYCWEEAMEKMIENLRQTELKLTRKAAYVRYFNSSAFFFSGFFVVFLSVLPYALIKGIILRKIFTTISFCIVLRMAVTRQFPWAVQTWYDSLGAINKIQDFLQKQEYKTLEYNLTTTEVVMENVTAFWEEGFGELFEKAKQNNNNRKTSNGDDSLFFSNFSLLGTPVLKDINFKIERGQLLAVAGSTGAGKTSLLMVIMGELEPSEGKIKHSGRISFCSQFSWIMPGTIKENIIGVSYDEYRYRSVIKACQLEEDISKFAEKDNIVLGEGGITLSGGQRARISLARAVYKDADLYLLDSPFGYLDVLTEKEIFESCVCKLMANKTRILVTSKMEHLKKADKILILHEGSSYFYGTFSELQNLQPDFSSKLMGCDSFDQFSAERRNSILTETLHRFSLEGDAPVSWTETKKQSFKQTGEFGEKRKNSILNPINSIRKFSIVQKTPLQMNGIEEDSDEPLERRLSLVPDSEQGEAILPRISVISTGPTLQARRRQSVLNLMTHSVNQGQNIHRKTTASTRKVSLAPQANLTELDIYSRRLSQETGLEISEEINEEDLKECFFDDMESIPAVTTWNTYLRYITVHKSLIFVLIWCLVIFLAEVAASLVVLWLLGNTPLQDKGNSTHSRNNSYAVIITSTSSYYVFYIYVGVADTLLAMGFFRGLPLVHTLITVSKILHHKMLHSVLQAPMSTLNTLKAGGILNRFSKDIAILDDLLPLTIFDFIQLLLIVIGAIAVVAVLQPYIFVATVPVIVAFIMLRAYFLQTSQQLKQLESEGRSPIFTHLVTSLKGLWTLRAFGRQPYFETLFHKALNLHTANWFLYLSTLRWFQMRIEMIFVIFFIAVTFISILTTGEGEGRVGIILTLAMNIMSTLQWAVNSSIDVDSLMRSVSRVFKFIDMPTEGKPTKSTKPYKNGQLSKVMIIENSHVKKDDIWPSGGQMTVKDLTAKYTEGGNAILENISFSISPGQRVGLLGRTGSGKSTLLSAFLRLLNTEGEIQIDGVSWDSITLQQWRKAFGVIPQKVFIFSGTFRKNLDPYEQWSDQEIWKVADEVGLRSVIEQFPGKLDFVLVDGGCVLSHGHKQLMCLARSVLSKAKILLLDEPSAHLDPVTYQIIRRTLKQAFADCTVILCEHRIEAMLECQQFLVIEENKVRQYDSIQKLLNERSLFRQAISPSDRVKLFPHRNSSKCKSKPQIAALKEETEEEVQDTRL
# methodDescription: Trans-Epithelial Current Clamp (TECC) assay using primary human bronchial epithelial cells
# Assay type: cell-based
# experimentalConditions: maximum percent activity relative to positive control (co-corrector 0.15 μM + potentiator 0.45 μM = 100%); primary hBE cells F508del/F508del
# Source text: A cell-based assay was developed using the primary human bronchial epithelial cells (hBE cells) with F508del/F508del CFTR and other mutations. Primary human bronchial epithelial (hBE) cells from CFTR patients with homozygous F508del/F508del mutation were expanded from 1×10^6 to 250×10^6 cells (Neuberger, T et al., 2011, Methods Mol Biol 741:39-54). […]
measuredAttribute: Emax (% Dual)

Reference set (3 entries):
COc1ccc(C)cc1[C@]1(C(=O)NS(=O)(=O)c2cccc3nc(C)ccc23)C[C@@H]1c1cccc(C(C)C)n1 [Example 57] :: 253 % Dual
COc1ccc(C)cc1[C@@]1(C(=O)NS(=O)(=O)c2cccc3nc(C)ccc23)C[C@H]1c1cccc(F)c1 (racemic) [Example 8] :: 429 % Dual
COc1ccc(C)cc1[C@]1(C(=O)NS(=O)(=O)c2cccc3nc(C)ccc23)C[C@@H]1c1ccccc1F (single isomer, unassigned) [Example 25] :: 305 % Dual

Can you give me Emax (% Dual) for all of these, one by one?
1. COc1ccc(C)cc1[C@@]1(C(=O)NS(=O)(=O)c2cccc3nc(C)ccc23)C[C@H]1c1cccc(F)c1 (single isomer, unassigned) [Example 21]
2. COc1ccc(C)cc1[C@]1(C(=O)NS(=O)(=O)c2cccc3nc(C)ccc23)C[C@@H]1c1cccc(OC(C)C)n1 [Example 97]
3. COc1ccc(C)cc1[C@@]1(C(=O)NS(=O)(=O)c2cccc3nc(C)ccc23)C[C@H]1c1ccccc1 (single isomer, unassigned) [Example 2]
4. CCOc1cnc([C@@H]2C[C@]2(C(=O)NS(=O)(=O)c2cccc3nc(C)ccc23)c2cc(C)ccc2OC)cn1 (single isomer, unassigned) [Example 65]
5. COc1ccc(C)cc1[C@]1(C(=O)NS(=O)(=O)c2cccc3nc(C)ccc23)C[C@@H]1c1ccc(C)nc1 [Example 11]
6. COc1ccc(C)cc1[C@]1(C(=O)NS(=O)(=O)c2cccc3nc(C)ccc23)C[C@@H]1c1ccc(C(C)C)nc1 [Example 67]
7. COc1ccc(C)cc1[C@@]1(C(=O)NS(=O)(=O)c2cccc3nc(C)ccc23)C[C@H]1c1cncc(C)n1 (racemic) [Example 35]

A.
213 % Dual
198 % Dual
250 % Dual
208 % Dual
214 % Dual
174 % Dual
331 % Dual

Can you give me Emax (% Dual) for all of these, one by one?
1. COc1ccc(C)cc1[C@]1(C(=O)NS(=O)(=O)c2cccc3nc(C)ccc23)C[C@@H]1c1cccnc1OC (single isomer, unassigned) [Example 50]
2. COc1ccc(C)cc1[C@]1(C(=O)NS(=O)(=O)c2cccc3nc(C)ccc23)C[C@@H]1c1cncc(C)n1 (single isomer, unassigned) [Example 46]

A.
359 % Dual
364 % Dual

----------
Assignment: determine reported EC50 for the given molecules.
# measuredOn: F508del/F508del CFTR (Homo sapiens, UniProt P13569, DEL508-508)
# Construct: cells isolated from CF patients with the homozygous mutation; endogenous in cells
# methodDescription: Trans-Epithelial Current Clamp (TECC) assay using primary human bronchial epithelial cells
# experimentalConditions: primary hBE cells homozygous F508del/F508del; test C2 corrector with co-corrector and potentiator, 18-24 hours at 37° C.; equivalent CFTR current (IEQ)/AUC
Numbers only, in nM.

Reference set (2 entries):
COc1ccc(C)cc1[C@]1(C(=O)NS(=O)(=O)c2cccc3nc(C)ccc23)C[C@@H]1c1cnc(C(C)C)cn1 (single isomer, unassigned) :: 33.7
CCOc1cnc([C@@H]2C[C@]2(C(=O)NS(=O)(=O)c2cccc3nc(C)ccc23)c2cc(C)ccc2OC)cn1 (single isomer, unassigned) [Example 65] :: 19.3

From here, focus on the item given below.
Q. Output measured EC50 for this item: `CCOc1cccc([C@H]2C[C@@]2(C(=O)NS(=O)(=O)c2cccc3nc(C)ccc23)c2cc(C)ccc2OC)n1`
A. 5.86
